# measured_on: factor X (Bos taurus)
# Sequence (P00743 234-492 limits assumed): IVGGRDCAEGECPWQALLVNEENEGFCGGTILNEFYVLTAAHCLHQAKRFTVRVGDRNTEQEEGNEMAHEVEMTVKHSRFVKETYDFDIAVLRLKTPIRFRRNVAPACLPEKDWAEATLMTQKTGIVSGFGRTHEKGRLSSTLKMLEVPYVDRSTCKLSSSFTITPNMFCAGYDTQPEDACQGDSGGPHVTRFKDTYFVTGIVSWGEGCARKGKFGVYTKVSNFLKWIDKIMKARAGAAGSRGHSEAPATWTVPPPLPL
# Sequence (P00743 41-180 limits assumed): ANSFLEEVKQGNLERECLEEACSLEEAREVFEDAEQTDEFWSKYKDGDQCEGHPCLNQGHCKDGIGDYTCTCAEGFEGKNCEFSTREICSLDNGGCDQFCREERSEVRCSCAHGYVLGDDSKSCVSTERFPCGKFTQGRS
# assay_notes: Factor X inhibition assay, Ki, bovine plasma enzyme
# experimental_context: bovine plasma (footnote e)
assay_metric: Ki

INSERT INTO assay_data (compound, assay_metric, endpoint_result) VALUES
  ('N=C(N)NCCC[C@H](NC(=O)[C@@H]1CC[C@@H]2CC[C@](N)(Cc3ccccc3)C(=O)N21)C(=O)c1nc2ccccc2s1 [Structure (29a)]', 'Ki', '4.65 µM');

###

# measured_on: Thrombin thrombomodulin complex (Bos taurus, UniProt P00735)
# Construct: thrombin was preincubated with 4 n thrombomodulin for 20 minutes at room temperature
# assay_notes: thrombin-thrombomodulin complex inhibition assay, Ki
# experimental_context: read-out: Ki T.T.C. (Thrombin thrombomodulin complex)
assay_metric: Ki (nM)

INSERT INTO measurements (compound, assay_metric, unit_of_measure, endpoint_result) VALUES
  ('N=C(N)NCCC[C@H](NC(=O)[C@@H]1CC[C@@H]2CC[C@@](N)(Cc3ccccc3)C(=O)N21)C(=O)c1nc2ccccc2s1 [Structure (29b)]', 'Ki', 'nM', 0.088);

Recorded values, source patent US7125872B2.
